Measured values drawn from patent US20240116997A1 for this set.

Assayed target: T1, IL-18 receptor (IL-18Rαβ) on cells (UniProt Q13478 19-541; O95256 20-599, limits assumed)
T1 sequence (looked up) 1: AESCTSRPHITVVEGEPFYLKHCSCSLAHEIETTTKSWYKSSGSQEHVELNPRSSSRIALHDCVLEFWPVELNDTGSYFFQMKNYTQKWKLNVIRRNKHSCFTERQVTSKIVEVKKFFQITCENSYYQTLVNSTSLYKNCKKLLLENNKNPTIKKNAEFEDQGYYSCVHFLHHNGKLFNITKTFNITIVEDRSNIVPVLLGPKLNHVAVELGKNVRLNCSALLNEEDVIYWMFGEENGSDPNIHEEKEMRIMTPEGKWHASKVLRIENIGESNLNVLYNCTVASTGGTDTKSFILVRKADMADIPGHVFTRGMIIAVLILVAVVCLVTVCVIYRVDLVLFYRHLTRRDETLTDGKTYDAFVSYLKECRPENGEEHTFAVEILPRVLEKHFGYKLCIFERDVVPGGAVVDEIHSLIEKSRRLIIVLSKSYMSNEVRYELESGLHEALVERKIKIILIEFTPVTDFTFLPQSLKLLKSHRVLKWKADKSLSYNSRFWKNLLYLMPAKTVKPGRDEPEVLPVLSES
T1 sequence (looked up) 2: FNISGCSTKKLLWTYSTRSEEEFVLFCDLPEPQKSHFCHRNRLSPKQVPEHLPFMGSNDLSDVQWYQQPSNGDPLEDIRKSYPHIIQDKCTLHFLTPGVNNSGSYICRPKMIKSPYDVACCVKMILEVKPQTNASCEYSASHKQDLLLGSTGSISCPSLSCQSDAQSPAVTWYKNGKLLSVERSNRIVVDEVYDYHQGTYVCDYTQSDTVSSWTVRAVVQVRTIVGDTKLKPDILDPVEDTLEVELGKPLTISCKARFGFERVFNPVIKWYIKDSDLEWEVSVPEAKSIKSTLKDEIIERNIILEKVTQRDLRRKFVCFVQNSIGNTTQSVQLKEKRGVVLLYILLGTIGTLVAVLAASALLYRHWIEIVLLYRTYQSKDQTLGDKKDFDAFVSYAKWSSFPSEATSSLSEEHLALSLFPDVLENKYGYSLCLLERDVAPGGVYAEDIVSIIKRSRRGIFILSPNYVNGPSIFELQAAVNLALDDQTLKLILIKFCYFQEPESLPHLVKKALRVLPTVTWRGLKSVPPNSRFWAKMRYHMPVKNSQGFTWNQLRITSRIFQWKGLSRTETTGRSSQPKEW
Assay notes: cell-based or functional assay
Catalogue of EC50 (pM), HEK-Blue IL-18R reporter assay readings, one per entry.
Enter your answer as a number in pM; do not include the unit.

C192 (SEQ ID NO: 81; N-terminal G, E6K, V11I, C38A, M51G, K53A, T63A, C76A, C127A) (ligand) GYFGKLKSKLSIIRNLNDQVLFIDQGNRPLFEDMTDSDARDNAPRTIFIISGYADSQPRGMAVAISVKCEKISTLSAENKIISFKEMNPPDNIKDTKSDIIFFQRSVPGHDNKMQFESSSYEGYFLAAEKERDLFKLILKKEDELGDRSIMFTVQNED = 14

Query :: Which measured EC50 (pM), HEK-Blue IL-18R reporter assay value corresponds to C183 (SEQ ID NO: 80; E6K, V11I, C38A, M51G, K53A, T63A, C76A, C127A) (ligand) YFGKLKSKLSIIRNLNDQVLFIDQGNRPLFEDMTDSDARDNAPRTIFIISGYADSQPRGMAVAISVKCEKISTLSAENKIISFKEMNPPDNIKDTKSDIIFFQRSVPGHDNKMQFESSSYEGYFLAAEKERDLFKLILKKEDELGDRSIMFTVQNED ?
Result :: 0.1

Query :: Which measured EC50 (pM), HEK-Blue IL-18R reporter assay value corresponds to C158 (V11I, C38A, K53A, C76A, G108A, C127A) (ligand) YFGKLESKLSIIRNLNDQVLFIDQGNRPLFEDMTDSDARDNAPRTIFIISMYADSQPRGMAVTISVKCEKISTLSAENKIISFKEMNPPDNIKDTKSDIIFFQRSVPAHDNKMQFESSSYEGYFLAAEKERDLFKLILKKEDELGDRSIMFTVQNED ?
Result :: 15.6
